- Test system: RCC-JW (Kidney Carcinoma)
- assay.name: Bliss excess, mean over the matrix (fraction); higher = more synergy
Short version: Bliss excess at least -0.02 is 1, less is 0.

Recorded results for 5 compounds are shown here.
CN(C)CCCOc1ccc(-c2ccc3ncc4c(c3c2)n(C2CCOCC2)c(=O)n4C)cn1 [AZD0156] + CCN(CCO)CCCOc1ccc2c(Nc3cc(CC(=O)Nc4cccc(F)c4)[nH]n3)ncnc2c1 [AZD2811] (first compound max 1 µM, 7x7, partner max 1 µM): 0
CC(=O)c1c(C)c2cnc(Nc3ccc(N4CCNCC4)cn3)nc2n(C2CCCC2)c1=O [Palbociclib] + Cc1c2c(nn1C)CSCc1cc(n(C)n1)CSc1cc(c3ccccc3c1)OCCCc1c(C(=O)O)n(C)c3c-2c(Cl)ccc13 [AZD5991] (first compound max 10 µM, 7x7, partner max 1 µM): 0
Cc1c2c(nn1C)CSCc1cc(n(C)n1)CSc1cc(c3ccccc3c1)OCCCc1c(C(=O)O)n(C)c3c-2c(Cl)ccc13 [AZD5991] + CCN(CCO)CCCOc1ccc2c(Nc3cc(CC(=O)Nc4cccc(F)c4)[nH]n3)ncnc2c1 [AZD2811] (first compound max 1 µM, 7x7, partner max 1 µM): 1
Cc1nc(Nc2ncc(C(=O)Nc3c(C)cccc3Cl)s2)cc(N2CCN(CCO)CC2)n1 [Dasatinib] + CC(=O)Nc1cccc(-n2c(=O)n(C3CC3)c(=O)c3c(Nc4ccc(I)cc4F)n(C)c(=O)c(C)c32)c1 [Trametinib] (first compound max 2 µM, 7x7, partner max 1 µM): 1
Cc1cc2ncnn2cc1Nc1ncc2c(n1)n(C1CCOCC1)c(=O)n2C [AZD7648] + CN(C)CCCOc1ccc(-c2ccc3ncc4c(c3c2)n(C2CCOCC2)c(=O)n4C)cn1 [AZD0156] (first compound max 10 µM, 7x7, partner max 1 µM): 1

Confirm if Bliss excess reported for the compound N#Cc1cnc(Nc2cc(NC[C@H]3CNCCO3)c(C(F)(F)F)cn2)cn1 [SRA737] + O=c1[nH]cc(F)c(=O)[nH]1 [5-Fluorouracil] (first compound max 10 µM, 7x7, partner max 20 µM) is -0.02 or above. 0

---

- Tested on: RCC-JW (Kidney Carcinoma)
- assay.name: combination Emax (second highest fraction inhibited in the dose matrix, 72 h); higher = more inhibition; extreme values may be limits of the assay
experimental.readout: combination Emax
Numbers only.

# return combination Emax for each item in the list
1. C[C@@H](Oc1cc(-c2cnn(C3CCNCC3)c2)cnc1N)c1c(Cl)ccc(F)c1Cl [Crizotinib] + CC1=C(C(=CC=C1)Cl)NC(=O)C2=CN=C(S2)NC3=CC(=NC(=N3)C)N4CCN(CC4)CCO [Dasatinib] (first compound max 10 µM, 7x7, partner max 2 µM)
2. COc1cc2ncnc(Nc3ccc(F)c(Cl)c3)c2cc1OCCCN1CCOCC1 [Gefitinib] + CC(C)n1c(=O)n(C)c2cnc3cc(F)c(-c4ccc(OCCCN5CCCCC5)nc4)cc3c21 [AZD1390] (first compound max 10 µM, 7x7, partner max 0.3 µM)
3. COc1nnc2ccc(N3CCC(c4ccc(OCCN5CCN(C)C(=O)[C@H]5C)cc4)CC3)nn12 [AZD5153] + CC1(C)CCC(CN2CCN(c3ccc(C(=O)NS(=O)(=O)c4ccc(NCC5CCOCC5)c([N+](=O)[O-])c4)c(Oc4cnc5[nH]ccc5c4)c3)CC2)=C(c2ccc(Cl)cc2)C1 [Venetoclax] (first compound max 1 µM, 7x7, partner max 1 µM)
4. CC(=O)c1c(C)c2cnc(Nc3ccc(N4CCNCC4)cn3)nc2n(C2CCCC2)c1=O [Palbociclib] + CC1(C)CCC(CN2CCN(c3ccc(C(=O)NS(=O)(=O)c4ccc(NCC5CCOCC5)c([N+](=O)[O-])c4)c(Oc4cnc5[nH]ccc5c4)c3)CC2)=C(c2ccc(Cl)cc2)C1 [Venetoclax] (first compound max 10 µM, 7x7, partner max 1 µM)
5. COc1nnc2ccc(N3CCC(c4ccc(OCCN5CCN(C)C(=O)[C@H]5C)cc4)CC3)nn12 [AZD5153] + Cn1cnc2c(F)c(Nc3ccc(Br)cc3Cl)c(C(=O)NOCCO)cc21 [Selumetinib] (first compound max 1 µM, 7x7, partner max 10 µM)
6. C[C@@H]1COCCN1c1cc(C2([S@](C)(=N)=O)CC2)nc(-c2ccnc3[nH]ccc23)n1 [AZD6738] + O=C(c1cc(Cc2n[nH]c(=O)c3ccccc23)ccc1F)N1CCN(C(=O)C2CC2)CC1 [Olaparib] (first compound max 10 µM, 7x7, partner max 10 µM)
7. CC1(C)CCC(CN2CCN(c3ccc(C(=O)NS(=O)(=O)c4ccc(NCC5CCOCC5)c([N+](=O)[O-])c4)c(Oc4cnc5[nH]ccc5c4)c3)CC2)=C(c2ccc(Cl)cc2)C1 [Venetoclax] + CCN(CCO)CCCOc1ccc2c(Nc3cc(CC(=O)Nc4cccc(F)c4)[nH]n3)ncnc2c1 [AZD2811] (first compound max 1 µM, 7x7, partner max 1 µM)
8. Cc1c2c(nn1C)CSCc1cc(n(C)n1)CSc1cc(c3ccccc3c1)OCCCc1c(C(=O)O)n(C)c3c-2c(Cl)ccc13 [AZD5991] + CN(C)CCCOc1ccc(-c2ccc3ncc4c(c3c2)n(C2CCOCC2)c(=O)n4C)cn1 [AZD0156] (first compound max 1 µM, 7x7, partner max 1 µM)

1. 0.851
2. 0.226
3. 0.3
4. 0.215
5. 0.3
6. 0.552
7. 0.184
8. 0.289

Would you mind giving combination Emax for every compound in the list below?
1. N#Cc1cnc(Nc2cc(NC[C@H]3CNCCO3)c(C(F)(F)F)cn2)cn1 [SRA737] + Nc1ccn([C@@H]2O[C@H](CO)[C@@H](O)C2(F)F)c(=O)n1 [Gemcitabine] (first compound max 10 µM, 7x7, partner max 0.3 µM)
2. COc1cccc2c1C(=O)c1c(O)c3c(c(O)c1C2=O)C[C@@](O)(C(=O)CO)C[C@@H]3O[C@H]1C[C@H](N)[C@H](O)[C@H](C)O1 [Doxorubicin] + Cc1cc2ncnn2cc1Nc1ncc2c(n1)n(C1CCOCC1)c(=O)n2C [AZD7648] (first compound max 1 µM, 7x7, partner max 10 µM)

1. 0.868
2. 0.75

---

For each entry below, report its combination Emax value.
- Test system: HT-1080 (Other Solid Carcinomas)
- assay.name: combination Emax (second highest fraction inhibited in the dose matrix, 72 h); higher = more inhibition; extreme values may be limits of the assay
Numbers only.

Use these answered entries as a reference point.
CCN(CCO)CCCOc1ccc2c(Nc3cc(CC(=O)Nc4cccc(F)c4)[nH]n3)ncnc2c1 [AZD2811] + C[C@@H]1COCCN1C2=NC(=NC(=C2)C3(CC3)[S@](=N)(=O)C)C4=C5C=CNC5=NC=C4 [AZD6738] (first compound max 1 µM, 7x7, partner max 10 µM): 0.336
COc1nnc2ccc(N3CCC(c4ccc(OCCN5CCN(C)C(=O)[C@H]5C)cc4)CC3)nn12 [AZD5153] + CCN(CCO)CCCOc1ccc2c(Nc3cc(CC(=O)Nc4cccc(F)c4)[nH]n3)ncnc2c1 [AZD2811] (first compound max 1 µM, 7x7, partner max 1 µM): 0.387

Tell me the measured combination Emax of CN(CCO)CC[C@H](CSc1ccccc1)Nc1ccc(S(=O)(=O)NC(=O)c2ccc(N3CCC([C@@H](O)c4ccccc4-c4ccc(Cl)cc4)CC3)cc2)cc1S(=O)(=O)C(F)(F)F [AZD4320] + CN(C)CCCOc1ccc(-c2ccc3ncc4c(c3c2)n(C2CCOCC2)c(=O)n4C)cn1 [AZD0156] (first compound max 1 µM, 7x7, partner max 1 µM) , please. 0.549

---

Please provide measured Bliss excess for the entries that follow.
- Test system: SiHa (Cervical Carcinoma)
- assay.name: Bliss excess, mean over the matrix (fraction); higher = more synergy
Numbers only.

Example entries begin here.
Cc1c2c(nn1C)CSCc1cc(n(C)n1)CSc1cc(c3ccccc3c1)OCCCc1c(C(=O)O)n(C)c3c-2c(Cl)ccc13 [AZD5991] + CC1(C)CCC(CN2CCN(c3ccc(C(=O)NS(=O)(=O)c4ccc(NCC5CCOCC5)c([N+](=O)[O-])c4)c(Oc4cnc5[nH]ccc5c4)c3)CC2)=C(c2ccc(Cl)cc2)C1 [Venetoclax] (first compound max 1 µM, 7x7, partner max 1 µM): -0.129
Cc1c2c(nn1C)CSCc1cc(n(C)n1)CSc1cc(c3ccccc3c1)OCCCc1c(C(=O)O)n(C)c3c-2c(Cl)ccc13 [AZD5991] + Cc1cc2ncnn2cc1Nc1ncc2c(n1)n(C1CCOCC1)c(=O)n2C [AZD7648] (first compound max 1 µM, 7x7, partner max 10 µM): -0.0234
Cc1c2c(nn1C)CSCc1cc(n(C)n1)CSc1cc(c3ccccc3c1)OCCCc1c(C(=O)O)n(C)c3c-2c(Cl)ccc13 [AZD5991] + Cn1cnc2c(F)c(Nc3ccc(Br)cc3Cl)c(C(=O)NOCCO)cc21 [Selumetinib] (first compound max 1 µM, 7x7, partner max 3 µM): 0.0015
CC(=O)c1c(C)c2cnc(Nc3ccc(N4CCNCC4)cn3)nc2n(C2CCCC2)c1=O [Palbociclib] + CN(CC[C@H](CSC1=CC=CC=C1)NC2=C(C=C(C=C2)S(=O)(=O)NC(=O)C3=CC=C(C=C3)N4CCC(CC4)[C@H](C5=CC=CC=C5C6=CC=C(C=C6)Cl)O)S(=O)(=O)C(F)(F)F)CCO [AZD4320] (first compound max 10 µM, 7x7, partner max 1 µM): -0.044

Each molecule below has a recorded value; state its Bliss excess.
1. COc1nnc2ccc(N3CCC(c4ccc(OCCN5CCN(C)C(=O)[C@H]5C)cc4)CC3)nn12 [AZD5153] + CN(CC[C@H](CSC1=CC=CC=C1)NC2=C(C=C(C=C2)S(=O)(=O)NC(=O)C3=CC=C(C=C3)N4CCC(CC4)[C@H](C5=CC=CC=C5C6=CC=C(C=C6)Cl)O)S(=O)(=O)C(F)(F)F)CCO [AZD4320] (first compound max 1 µM, 7x7, partner max 1 µM)
2. CC(=O)c1c(C)c2cnc(Nc3ccc(N4CCNCC4)cn3)nc2n(C2CCCC2)c1=O [Palbociclib] + Cn1cnc2c(F)c(Nc3ccc(Br)cc3Cl)c(C(=O)NOCCO)cc21 [Selumetinib] (first compound max 10 µM, 7x7, partner max 10 µM)
3. NC1(C(=O)N[C@@H](CCO)c2ccc(Cl)cc2)CCN(c2ncnc3[nH]ccc23)CC1 [Capivasertib] + CC(C)n1c(=O)n(C)c2cnc3cc(F)c(-c4ccc(OCCCN5CCCCC5)nc4)cc3c21 [AZD1390] (first compound max 10 µM, 7x7, partner max 0.3 µM)

0.0846
-0.0404
-0.046

FYI, the data here is from the supplement of paper PMC11061612.
